# Tested on: Escherichia coli
# experiment: Activation of Escherichia coli nitroreductase assessed as decrease in substrate concentration at 100 uM by HPLC analysis relative to CB-1954
readout: fold change (FC)
Quick one: just the number, no unit, thanks!

Would you please look over these solved cases?
O=[N+]([O-])c1ccc(N2CCc3ccccc3C2)c([N+](=O)[O-])c1 ... 0.2
O=C(O)c1cc([N+](=O)[O-])c(N2CCc3ccccc3C2)c([N+](=O)[O-])c1 ... 0.01

Let us move to another entry and its fold change (FC).
Suppose we examine the molecule O=[N+]([O-])c1cnc(N2CCc3ccccc3C2)c([N+](=O)[O-])c1 ; what fold change (FC) value has been reported? 0.8
